src = patent US6924302B2

Entries and their IC50
- Tested On: CDK2 in complex with cyclin A (Homo sapiens)
- Construct: purchased Upstate Biotech
- Experimental Details: Kinase Selectivity Assay CDK2
- Type: biochemical
- Study Conditions: Table 1
Measured Endpoint: IC50 (nM)

1. Nc1nc(Nc2ccc(S(=O)(=O)Nc3ccccn3)cc2)nn1C(=O)c1c(F)cccc1F :: 21
2. Cc1ccc(F)c(C(=O)n2nc(N)nc2Nc2ccc(S(N)(=O)=O)cc2)c1F :: 31
3. Nc1nc(Nc2ccc(S(N)(=O)=O)cc2)nn1C(=O)c1c(F)ccc(Cl)c1F :: 1.7
4. Nc1nc(Nc2ccc(N3CCCS3(=O)=O)cc2)nn1C(=O)c1c(F)cccc1F :: 7
5. Cc1cc(C)c(C(=O)n2nc(Nc3ccc(S(=O)(=O)Nc4ccccn4)cc3)nc2N)s1 :: 9
6. Cc1ccc(F)c(C(=O)n2nc(Nc3ccc(S(=O)(=O)NCCN(C)C)cc3)nc2N)c1F :: 2
7. Cc1ccsc1C(=O)n1nc(Nc2ccc(S(=O)(=O)Nc3ccccn3)cc2)nc1N :: 3
8. Cc1ccsc1C(=O)n1nc(Nc2ccc(NS(C)(=O)=O)cc2)nc1N :: 21
9. CN(C)CCNS(=O)(=O)c1ccc(Nc2nc(N)n(C(=O)c3c(F)cccc3F)n2)cc1 :: 1
10. CCc1ccc(C(=O)n2nc(Nc3ccc(S(=O)(=O)Nc4ccccn4)cc3)nc2N)s1 :: 3
11. Nc1nc(Nc2ccc(S(N)(=O)=O)cc2)n(C(=S)Nc2c(F)cccc2F)n1 :: 3.3
12. CCNS(=O)(=O)c1ccc(Nc2nc(N)n(C(=O)c3c(F)cccc3F)n2)cc1 :: 4.4
13. CNS(=O)(=O)c1ccc(Nc2nc(N)n(C(=O)c3c(F)ccc(C)c3F)n2)cc1 :: 1
14. Nc1nc(Nc2ccc(S(N)(=O)=O)cc2)nn1C(=O)Nc1c(F)cccc1F :: 1.4
15. Cc1ccsc1C(=O)n1nc(Nc2ccc(S(=O)(=O)NCCN(C)C)cc2)nc1N :: 1
16. CCc1ccc(C(=O)n2nc(Nc3ccc(S(=O)(=O)NCCN(C)C)cc3)nc2N)s1 :: 1
17. Cc1cc(C)c(C(=O)n2nc(Nc3ccc(S(=O)(=O)NCCN(C)C)cc3)nc2N)s1 :: 2
18. CCc1ccc(C(=O)n2nc(Nc3ccc(NS(C)(=O)=O)cc3)nc2N)s1 :: 5
19. Cc1ccsc1C(=O)n1nc(Nc2ccc(N3CCCS3(=O)=O)cc2)nc1N :: 1
20. Cc1cc(C)c(C(=O)n2nc(Nc3ccc(NS(C)(=O)=O)cc3)nc2N)s1 :: 12

* * *

- Tested On: Protein Kinase A (Bos taurus, UniProt P00517)
- Construct: purified from bovine heart; purchased Upstate Biotech 14-114; host or cells: bovine heart
- Experimental Details: Kinase Selectivity Assay Protein Kinase A
- Format: biochemical, bovine
- Procedure: Assays to test compound inhibition of other kinases were preformed using methods that measure the amount of phosphorylation of a biotinylated peptide substrate. Biotinylated peptide substrates were selected from the literature as appropriate for the enzyme being evaluated. […] The plate was read on a scintillation counter to determine ^33P-γ-ATP incorporated into the immobilized peptide. […] A maximum and minimum signal for the assay was determined on each plate. […]
pIC50: −log10 of the molar value.
Measured Endpoint: pIC50

1) Cc1cc(C)c(C(=O)n2nc(Nc3ccc(S(N)(=O)=O)cc3)nc2N)s1 :: < 4.00
